- System Name: 4'-phosphopantetheinyl transferase ffp (Bacillus subtilis)
- Measurement Protocol: qHTS Assay for Inhibitors of Bacillus subtilis Sfp phosphopantetheinyl transferase (PPTase);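 further: the enzyme is Sfp with the accession as filed and its product quenches rhodamine fluorescence; 0% = enzyme reaction without inhibitor and -100% = no enzyme wells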
- Condition Context: Biochemical Sfp PPTase activity
Hit rate of the full screen: of about 310,000 compounds, about 11,000 (3.5%) were called active. Not shown: some 4% with an inconclusive outcome. The entries come from a sample that favours actives as a whole.
Quantity Measured: largest response in the series, negative = inhibition (%)
Numbers only, in %.

{"Compound": "Cc1cccc([C@@H]2[C@@H]3C(=O)N(Cc4ccccc4)C(=O)[C@@H]3[C@]3(C)C(=O)N(c4ccc(Br)cc4)C(=O)N23)c1", "System Name": "4'-phosphopantetheinyl transferase ffp (Bacillus subtilis)", "Numeric Result": 0.791}
{"Compound": "CC(=O)N1CCc2c(sc(NC(=O)CCS(=O)(=O)c3ccccc3)c2C#N)C1", "System Name": "4'-phosphopantetheinyl transferase ffp (Bacillus subtilis)", "Numeric Result": -1.97}
{"Compound": "COc1cc(C)cc(CN2CCC(Cc3ccccc3)CC2)c1O", "System Name": "4'-phosphopantetheinyl transferase ffp (Bacillus subtilis)", "Numeric Result": 15.6}
{"Compound": "COC(CNC(=O)c1ccc2c(c1)ncn2-c1cc(C)cc(C)c1)OC", "System Name": "4'-phosphopantetheinyl transferase ffp (Bacillus subtilis)", "Numeric Result": 8.91}
{"Compound": "CC(C)=CCCC(C)CN1CCC(n2nccc2NC(=O)c2ccccc2)CC1 (stereo not drawn)", "System Name": "4'-phosphopantetheinyl transferase ffp (Bacillus subtilis)", "Numeric Result": 9.72}

Each compound below has a reported value. Please supply its largest response in the series, negative = inhibition.
1. CC(NCc1cccs1)C(=O)Nc1cc(Cl)cc(Cl)c1 (stereo not drawn)
2. COc1ccc(OCC(=O)Nc2nnc(-c3ccco3)s2)cc1

**A:**
1. -16.2
2. -15

Hi there! I need largest response in the series, negative = inhibition for each item below, if you can.
1. N#Cc1c(C(F)(F)F)cc(-c2ccc(Cl)cc2)nc1SCC(=O)O
2. CCSc1nc(-c2ccc(OC)cc2)cc(-c2ccc(OC)cc2)c1C#N
3. CC1(C)C(C=C(Cl)Cl)C1C(=O)NC(O)C(=O)c1ccccc1 (stereo not drawn)
4. O=[N+]([O-])c1ccc(O)c(/C=N/Nc2ccccc2[N+](=O)[O-])c1
5. COc1ccc(C(=O)CSc2nnc(COc3ccccc3)n2Cc2ccco2)cc1
6. CNc1nnc(-c2ccco2)s1

**A:**
7.84
4.06
3.88
-9.69
-23.6
5.68

For every item below, please supply its largest response in the series, negative = inhibition.
1. CCCc1nc2c(c(=O)c3ccccc3n2C)c(=O)n1-c1cc(C)cc(C)c1
2. O=C(Cc1ccccc1Cl)N1CCOCC1
3. O=C(Nc1nc2ccccc2s1)c1ccc2c(c1)OCO2
4. O=C(O)CS/C(=C\c1ccc(F)cc1)c1nc2ccccc2s1
5. OC(CNC1CCCC1)COc1ccc(F)cc1 (stereo not drawn)

**A:**
1: -11.4; 2: 17; 3: 16.2; 4: 27.3; 5: 1.37

# return largest response in the series, negative = inhibition for each item in the list
1. COC(=O)c1ccc2ccccc2c1OC1OC(CO)C(O)C(O)C1NC(C)=O (stereo not drawn)
2. CCc1ccc(OCC(=O)OC(C)C(=O)NC2CC2)cc1 (stereo not drawn)

**A:**
[4.77, 6.01]
